# Protocol Notes: Selectivity index, ratio of HC50 for sheep RBC to MIC for Staphylococcus aureus ATCC 29213
# Assay type: toxicity
# Conditions: sheep red blood cells, read-out: Selectivity Index
Value Type: selectivity ratio
Provide a numeric answer; units are not to be included.

Given item `C=CCc1cc(-c2ccc(OCCC[N+](C)(C)CC(=O)NCCCC)c(CC=C)c2)c2oc(-c3ccc(Cl)cc3Cl)nc2c1.[Br-]` , the value recorded as its selectivity ratio is 2.7

Others:
Given item `C=CCc1cc(-c2ccc(OCCC[N+](C)(C)CC(=O)NCCCC)c(CC=C)c2)c2oc(-c3cc(Cl)cc(Cl)c3)nc2c1.[Br-]` , the value recorded as its selectivity ratio is 0.6
